experiment: Intrinsic clearance in rat liver microsomes at 5 uM by LC-MS/MS analysis; assay type: ADME, Microsome; conditions: read-out: CLH
assay_metric: microsomal CLint at 5 µM (µL/min/mg)
Write it as a number; the unit µL/min/mg goes unstated.

Task: Any idea what microsomal CLint at 5 µM was measured for `C=CCn1cc(-c2nc3ccccc3nc2Cl)c2cc(OC)ccc21` ?
Result: 52.8

* * *

molecular target: 3',5'-cyclic-AMP phosphodiesterase 4B (Homo sapiens); test: Inhibition of recombinant His-tagged human PDE4B expressed in Sf9 cells using cAMP as substrate preincubated with enzyme for 15 mins followed by substrate addition and incubated for 1 hr by PDELight HTS cAMP phosphodiesterase Kit based luminometry
Sequence (Q07343 whole entry): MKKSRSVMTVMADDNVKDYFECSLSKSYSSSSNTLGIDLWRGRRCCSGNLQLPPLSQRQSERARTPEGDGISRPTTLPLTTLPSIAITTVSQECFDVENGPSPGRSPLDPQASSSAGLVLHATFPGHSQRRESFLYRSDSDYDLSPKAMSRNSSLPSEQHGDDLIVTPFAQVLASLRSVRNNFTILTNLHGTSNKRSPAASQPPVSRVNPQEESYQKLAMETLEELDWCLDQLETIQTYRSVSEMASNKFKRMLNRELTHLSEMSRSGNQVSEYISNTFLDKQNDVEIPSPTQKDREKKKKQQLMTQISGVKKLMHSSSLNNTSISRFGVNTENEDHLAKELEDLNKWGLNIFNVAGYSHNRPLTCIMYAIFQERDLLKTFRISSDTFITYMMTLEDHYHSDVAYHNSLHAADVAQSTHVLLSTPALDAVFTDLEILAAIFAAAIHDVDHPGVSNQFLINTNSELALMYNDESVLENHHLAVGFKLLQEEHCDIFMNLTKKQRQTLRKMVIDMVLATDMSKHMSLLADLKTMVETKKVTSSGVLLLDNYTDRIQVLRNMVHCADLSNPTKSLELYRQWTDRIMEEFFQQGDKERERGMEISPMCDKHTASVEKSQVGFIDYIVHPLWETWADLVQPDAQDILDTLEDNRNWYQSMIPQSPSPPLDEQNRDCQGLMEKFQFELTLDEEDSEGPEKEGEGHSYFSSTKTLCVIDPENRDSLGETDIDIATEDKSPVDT
Quick list: pIC50 per entry.
# reply with the number alone; pIC50 is -log10 of concentration in mol/L

compound	measured_target	assay_metric	numeric_result
CC(C)n1cc(-c2nc3ccccc3nc2Cl)c2cc(Br)ccc21	3',5'-cyclic-AMP phosphodiesterase 4B (Homo sapiens)	pIC50	5.01
CCOC(=O)/C=C/c1c(-c2nc3ccccc3nc2Cl)c2cc(OC)ccc2n1C(C)C	3',5'-cyclic-AMP phosphodiesterase 4B (Homo sapiens)	pIC50	5.25
COC(=O)/C=C/c1c(-c2nc3ccccc3nc2Cl)c2cc(OC)ccc2n1C(C)C	3',5'-cyclic-AMP phosphodiesterase 4B (Homo sapiens)	pIC50	5.22
CCOC(=O)Cn1cc(-c2nc3ccccc3nc2Cl)c2cc(OC)ccc21	3',5'-cyclic-AMP phosphodiesterase 4B (Homo sapiens)	pIC50	6.68
COC(=O)/C=C/c1[nH]c2ccccc2c1-c1nc2ccccc2nc1Cl	3',5'-cyclic-AMP phosphodiesterase 4B (Homo sapiens)	pIC50	5.41

Task: Can you look up the measured pIC50 of `COc1ccc2c(c1)c(-c1nc3ccccc3nc1Cl)cn2C(C)C` for me?
Result: 6.36

Task: Another: `C=CCn1cc(-c2nc3ccccc3nc2Cl)c2ccccc21`
Result: 5.33

Task: Follow-up entry: CCC(C)n1cc(-c2nc3ccccc3nc2Cl)c2cc(OC)ccc21 (stereo not given)
Result: 5.98

Task: How about this compound: `C=CCn1cc(-c2nc3ccccc3nc2Cl)c2cc(OC)ccc21`
Result: 6.41

Task: Also, `C=CCn1cc(-c2ncccc2C#N)c2cc(OC)ccc21` please.
Result: 5.70

* * *

assay: Half life in rat liver microsomes at 5 uM by LC-MS/MS analysis; format: ADME, Microsome
assay_metric: half-life at 5 µM (min)
Give the quantity in min, number only.

Task: Give the measured half-life at 5 µM of `C=CCn1cc(-c2nc3ccccc3nc2Cl)c2cc(OC)ccc21` .
Result: 52.5

* * *

species on record: Homo sapiens; assay: Selectivity index, ratio of IC50 for PDE4D2 (unknown origin) to IC50 for recombinant His-tagged human PDE4B expressed in sf9 cells using cAMP as substrate by PDELight HTS cAMP phosphodiesterase Kit based luminometry
Hi, to clarify the labels: label 1 covers Ratio IC50 from 10 upward, label 0 covers anything below 10.

Answered cases to consult:
molecule	label_class
C=CCn1cc(-c2nc3ccccc3nc2Cl)c2cc(OC)ccc21	label 1
CCC(C)n1cc(-c2nc3ccccc3nc2Cl)c2cc(OC)ccc21 (stereo not given)	label 0
COc1ccc2c(c1)c(-c1nc3ccccc3nc1Cl)cn2C(C)C	label 1
CCOC(=O)Cn1cc(-c2nc3ccccc3nc2Cl)c2cc(OC)ccc21	label 1

Task: Quick check, Ratio IC50 >= 10? `C=CCn1cc(-c2nc3ccccc3nc2Cl)c2ccccc21`
Result: label 0

Provenance of the data: ChEMBL document CHEMBL4393686
